assay-system: T1, rat α-CGRP (Rattus norvegicus, UniProt P01256)
T1 construct: rat α (1-37); purchased GenScript Corporation or Global Peptide Services
T1 sequence (P01256 83-119 limits assumed): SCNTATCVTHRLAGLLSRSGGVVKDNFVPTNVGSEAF
test-details: Biacore SPR affinity of Fab fragments to N-biotinylated rat α-CGRP on SA chip
Assay type: binding
stated-conditions: 37° C., screening mode except underlined values
// reported α-rat koff per item
Kindly provide the numeric value in s⁻¹ only, without the unit symbol.

>>> result_value("M22: G1 variant; L1 R28W; HC-FW3 L99T (antibody, V domains shown) VH: EVQLVESGGGLVQPGGSLRLSCAASGFTFSNYWISWVRQAPGKGLEWVAEIRSESDASATHYAEAVKGRFTISRDNAKNSLYLQMNSLRAEDTAVYYCTAYFDYGLAIQNYWGQGTLVTVSS VL: EIVLTQSPATLSLSPGERATLSCKASKWVTTYVSWYQQKPGQAPRLLIYGASNRYLGIPARFSGSGSGTDFTLTISSLEPEDFAVYYCSQSYNYPYTFGQGTKLEIK")
0.0011

# evaluate next
Q) Could you tell me which α-rat koff is on file for M65: G1 variant; L1 R28N T30G; L2 G50A L56I; H2 E54K A57C; HC-FW3 L99T A100V (antibody, V domains shown) VH: EVQLVESGGGLVQPGGSLRLSCAASGFTFSNYWISWVRQAPGKGLEWVAEIRSKSDCSATHYAEAVKGRFTISRDNAKNSLYLQMNSLRAEDTAVYYCTVYFDYGLAIQNYWGQGTLVTVSS VL: EIVLTQSPATLSLSPGERATLSCKASKNVGTYVSWYQQKPGQAPRLLIYAASNRYIGIPARFSGSGSGTDFTLTISSLEPEDFAVYYCSQSYNYPYTFGQGTKLEIK ?
A) 0.00407

Origin of the recorded values: patent US20190071490A1
